These measurements were taken from patent US6124323A.

biological target: NMDA receptor subunits 1A/2B (Rattus norvegicus, UniProt P35439+Q00960); construct: expressed in transfected cells; host or cells: Xenopus laevis oocytes (cRNA injection; clones from Dr. P. H. Seeburg); assay: Electrophysiological assay at NMDA receptor subunits expressed in Xenopus oocytes, 1A/2B; format: cell-based; conditions: Xenopus oocytes; glutamate 100 μm and glycine 1-100 μm; read-out: Subunits IC50, 1A/2B
Sequence (Q00960 27-1482, other chains not shown): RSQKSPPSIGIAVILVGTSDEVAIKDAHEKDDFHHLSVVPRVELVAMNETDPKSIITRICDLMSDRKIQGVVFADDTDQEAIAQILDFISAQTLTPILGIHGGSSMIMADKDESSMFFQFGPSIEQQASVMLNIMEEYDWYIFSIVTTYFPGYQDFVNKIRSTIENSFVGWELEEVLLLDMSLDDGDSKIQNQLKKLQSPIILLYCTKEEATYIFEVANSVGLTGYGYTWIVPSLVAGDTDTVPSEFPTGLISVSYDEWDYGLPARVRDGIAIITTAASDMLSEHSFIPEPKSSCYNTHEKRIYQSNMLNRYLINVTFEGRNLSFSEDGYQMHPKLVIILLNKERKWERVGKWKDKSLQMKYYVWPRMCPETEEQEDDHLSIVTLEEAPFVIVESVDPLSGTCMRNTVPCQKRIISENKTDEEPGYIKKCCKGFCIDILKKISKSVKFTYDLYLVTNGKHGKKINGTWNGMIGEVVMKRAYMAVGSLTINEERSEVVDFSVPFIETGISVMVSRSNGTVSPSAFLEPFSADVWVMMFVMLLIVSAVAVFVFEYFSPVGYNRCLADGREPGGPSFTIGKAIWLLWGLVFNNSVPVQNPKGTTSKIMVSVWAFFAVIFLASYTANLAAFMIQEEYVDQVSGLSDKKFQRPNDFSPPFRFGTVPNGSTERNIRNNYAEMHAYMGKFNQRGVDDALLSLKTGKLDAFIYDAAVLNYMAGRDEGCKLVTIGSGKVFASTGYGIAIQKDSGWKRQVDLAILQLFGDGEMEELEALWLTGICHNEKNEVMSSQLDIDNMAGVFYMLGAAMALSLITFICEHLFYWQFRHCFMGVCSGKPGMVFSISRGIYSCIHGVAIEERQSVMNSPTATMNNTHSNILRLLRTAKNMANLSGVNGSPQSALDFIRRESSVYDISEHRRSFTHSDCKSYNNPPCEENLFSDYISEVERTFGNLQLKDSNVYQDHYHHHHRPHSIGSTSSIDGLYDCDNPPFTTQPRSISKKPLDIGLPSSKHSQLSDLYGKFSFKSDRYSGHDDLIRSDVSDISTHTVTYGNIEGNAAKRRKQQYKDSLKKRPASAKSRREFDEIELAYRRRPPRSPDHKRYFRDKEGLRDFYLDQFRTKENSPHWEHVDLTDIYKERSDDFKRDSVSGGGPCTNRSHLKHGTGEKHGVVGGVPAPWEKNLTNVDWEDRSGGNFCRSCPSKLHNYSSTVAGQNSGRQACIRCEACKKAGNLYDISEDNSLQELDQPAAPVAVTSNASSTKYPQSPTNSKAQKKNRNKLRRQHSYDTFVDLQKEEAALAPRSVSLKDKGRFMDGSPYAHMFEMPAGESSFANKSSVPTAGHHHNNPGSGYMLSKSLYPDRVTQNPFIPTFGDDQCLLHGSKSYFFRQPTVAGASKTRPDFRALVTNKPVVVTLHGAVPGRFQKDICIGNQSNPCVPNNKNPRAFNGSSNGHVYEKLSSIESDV
Where a name gives a salt, the structure may show the parent alone.
Value type: IC50 (µM)

O=[N+]([O-])c1ccc(OCCN2CCC(Cc3ccccc3)CC2)cc1 [Ex. 12, hydrobromide] | 6

1. CC(CCOc1ccccc1)N1CCC(Cc2ccccc2)CC1 (centres unmarked) [Ex. 41, hydrochloride]
2. Fc1ccc(OCCN2CCC(Cc3cccc(F)c3)CC2)cc1 [Ex. 113, hydrochloride]
3. Nc1ccccc1OCCN1CCC(Cc2ccc(Cl)cc2)CC1 [Ex. 74]
4. Fc1ccc(CC2CCN(CCOc3ccc(F)cc3)CC2)cc1 [Ex. 33, hydrochloride]
List from greatest to least IC50. Return value: ordered labels per request.
2, 1, 3, 4
(2: 30 µM, 1: 5 µM, 3: 3 µM, 4: 2 µM)

----------
target: NMDA receptor subunits 1A/2C (Rattus norvegicus, UniProt P35439+Q00961); construct: expressed in transfected cells; host or cells: Xenopus laevis oocytes (cRNA injection; clones from Dr. P. H. Seeburg); test: Electrophysiological assay at NMDA receptor subunits expressed in Xenopus oocytes, 1A/2C; type: cell-based; settings: Xenopus oocytes; glutamate 100 μm and glycine 1-100 μm; read-out: Subunits IC50, 1A/2C
Sequence (Q00961 20-1237, other chains not shown): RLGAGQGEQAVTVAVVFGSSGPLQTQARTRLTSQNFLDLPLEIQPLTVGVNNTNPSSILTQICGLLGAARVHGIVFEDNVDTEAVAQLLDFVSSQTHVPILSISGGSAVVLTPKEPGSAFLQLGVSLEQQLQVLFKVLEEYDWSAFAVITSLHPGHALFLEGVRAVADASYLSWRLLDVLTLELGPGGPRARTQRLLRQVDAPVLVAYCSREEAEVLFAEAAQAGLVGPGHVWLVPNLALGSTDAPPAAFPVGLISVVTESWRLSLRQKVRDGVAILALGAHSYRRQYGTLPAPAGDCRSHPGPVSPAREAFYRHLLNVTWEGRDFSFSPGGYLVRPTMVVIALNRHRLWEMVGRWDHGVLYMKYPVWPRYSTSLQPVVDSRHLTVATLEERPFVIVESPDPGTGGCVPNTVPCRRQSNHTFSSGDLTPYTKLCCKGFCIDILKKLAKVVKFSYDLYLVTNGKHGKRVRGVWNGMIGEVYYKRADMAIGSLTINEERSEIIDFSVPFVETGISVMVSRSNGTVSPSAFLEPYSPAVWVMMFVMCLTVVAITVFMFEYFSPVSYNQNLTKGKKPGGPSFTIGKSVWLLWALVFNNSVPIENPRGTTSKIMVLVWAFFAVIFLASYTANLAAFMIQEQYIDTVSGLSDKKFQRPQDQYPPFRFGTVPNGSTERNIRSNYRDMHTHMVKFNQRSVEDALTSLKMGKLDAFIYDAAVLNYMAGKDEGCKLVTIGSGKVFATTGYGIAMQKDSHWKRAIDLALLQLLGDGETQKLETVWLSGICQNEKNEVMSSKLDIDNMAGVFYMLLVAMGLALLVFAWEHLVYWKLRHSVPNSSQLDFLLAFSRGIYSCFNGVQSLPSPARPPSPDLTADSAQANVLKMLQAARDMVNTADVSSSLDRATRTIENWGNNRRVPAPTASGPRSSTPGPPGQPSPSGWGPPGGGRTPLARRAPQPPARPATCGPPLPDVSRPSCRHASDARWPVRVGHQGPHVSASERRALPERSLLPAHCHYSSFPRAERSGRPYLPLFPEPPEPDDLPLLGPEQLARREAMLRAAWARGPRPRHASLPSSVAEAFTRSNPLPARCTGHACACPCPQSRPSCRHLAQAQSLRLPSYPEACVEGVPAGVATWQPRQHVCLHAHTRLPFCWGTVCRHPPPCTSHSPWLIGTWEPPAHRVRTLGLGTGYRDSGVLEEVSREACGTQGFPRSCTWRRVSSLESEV
Structures can show the parent of a compound that is named as a salt.
Value type: IC50 (µM)

Clc1ccc(CC2CCN(CCCOc3ccccc3)CC2)cc1 [Ex. 30, hydrobromide] | 100
Clc1ccc(NC2CCN(CCCOc3ccccc3)CC2)cc1 [Ex. 40, hydrobromide] | 100

a. Cc1ccc(CC2CCN(CCOc3ccc(O)c(F)c3)CC2)cc1 [Ex. 151, hydrochloride]
b. S=c1[nH]c2ccc(OCCN3CCC(Cc4ccc(Cl)cc4)CC3)cc2[nH]1 [Ex. 176]
Decide: a or b , by lowest recorded IC50. Lab note: record the label of whichever item you select.
b

----------
target: NMDA receptor subunits 1A/2B (Rattus norvegicus, UniProt P35439+Q00960); construct: expressed in transfected cells; host or cells: Xenopus laevis oocytes (cRNA injection; clones from Dr. P. H. Seeburg); assay: Electrophysiological assay at NMDA receptor subunits expressed in Xenopus oocytes, 1A/2B; type: cell-based; conditions: Xenopus oocytes; glutamate 100 μm and glycine 1-100 μm; read-out: Subunits IC50, 1A/2B
Structures can show the parent of a compound that is named as a salt.
Value type: IC50 (nM)

Examples with answers:
OC1(Cc2ccccc2)CCN(CCOc2ccccc2)CC1 [Ex. 47, hydrochloride] | 3000
Oc1ccc(OCCN2CCC(O)(Cc3ccccc3)CC2)cc1 [Ex. 164, hydrochloride] | 120
OC(CCc1ccccc1)CN1CCC(Cc2ccccc2)CC1 (stereo not drawn) | 9000
O=[N+]([O-])c1ccc(CC2CCN(CCCOc3ccccc3)CC2)cc1 [Ex. 37, hydrobromide] | 10000
O=c1[nH]c2cccc(OCCN3CCC(Cc4ccccc4)CC3)c2[nH]1 | 110
c1ccc(OCCCN2CCC(c3ccccc3)CC2)cc1 | 10000
N=c1[nH]c2ccc(OCCN3CCC(Cc4ccccc4)CC3)cc2[nH]1 | 110
Fc1ccc(OCCN2CCC(Nc3ccc(Cl)cc3)CC2)cc1 [Ex. 38, dihydrochloride] | 45000

I. O=[N+]([O-])c1ccccc1OCCN1CCC(Cc2ccc(Cl)cc2)CC1
II. CN(CCN1CCC(Cc2ccccc2)CC1)c1ccccc1 [Ex. 143, dihydrochloride]
Given the listed items, does I or II have the lesser reported IC50? Your answer should be the label attached to the chosen record.
II
(II: 400 nM, I: 8000 nM)

1. OC1(Cc2ccccc2)CCN(CCCOc2ccccc2)CC1
2. Oc1cccc(OCCN2CCC(Cc3ccc(F)cc3)CC2)c1 [Ex. 159, hydrochloride]
3. O=C1Cc2cc(OCCN3CCC(Cc4ccc(F)cc4)CC3)ccc2N1
4. Cc1nc2cc(OCCN3CCC(Cc4ccccc4)CC3)ccc2[nH]1 [Ex. 71C]
Please give the order of these compounds when sorted by IC50, largest value leading. List labels; respect the requested ordering.
1, 4, 2, 3

P. COc1ccc(OCCN2CCC(Cc3ccccc3)CC2)cc1
Q. Cl.Cl.Oc1ccc(OCCN2CCC(Cc3ccccn3)CC2)cc1 [Ex. 125, dihydrochloride]
Returns: the argument ( P or Q ) having the larger IC50. Identify your pick by its label.
Q
(Q: 3300 nM, P: 1000 nM)

1. Oc1ccc(OCCN2CCC(Cc3ccc(F)cc3)CC2)cc1 [Ex. 102, hydrochloride]
2. Cn1c(=O)[nH]c2ccc(OCCN3CCC(Cc4ccccc4)CC3)cc21
3. Oc1ccc2cc(OCCN3CCC(Cc4ccccc4)CC3)ccc2c1
4. OC1CN(CCCOc2ccccc2)CCC1c1cccc(C(F)(F)F)c1 (stereo not drawn) [Ex. 46, hydrochloride]
Hey, can you sort those compounds up there by IC50, smallest first? Would you mind listing the labels in the order requested?
1, 3, 2, 4
(1: 20 nM, 3: 100 nM, 2: 200 nM, 4: 1500 nM)

P. O=c1[nH]c2ccccc2n1C1CCN(CCCOc2ccccc2)CC1 [Ex. 96, hydrobromide]
Q. Fc1ccc(OCCN2CCC(Cc3ccc4c(c3)CCCC4)CC2)cc1 [Ex. 140, hydrochloride]
R. Cc1ccc(CC2CCN(CCOc3ccc(O)cc3)CC2)c(F)c1 [Ex. 134, hydrochloride]
Put the compounds in ascending order of IC50. Order the labels as requested and give them as your answer.
R, P, Q

I. O=c1[nH]c2cccc(OCCN3CCC(Cc4ccccc4)CC3)c2[nH]c1=O
II. c1ccc(CC2CCN(CCOc3ccccc3)CC2)cc1
Between I and II , whose recorded IC50 is greater? Your answer should be the label attached to the chosen record.
I

I. c1ccc(CC2CCN(CCOc3ccc4ncccc4c3)CC2)cc1
II. Oc1ccc(OCCN2CCC(Cc3ccc(Cl)cc3)CC2)cc1 [Ex. 101, hydrochloride]
I would appreciate it if you could say which entry, I or II , has the lower IC50 value. Please identify the chosen entry by its label.
II

a. c1ccc(CCN2CCC(Cc3ccccc3)CC2)cc1 [Ex. 83, hydrochloride]
b. Oc1ccc(CC2CCN(CCOc3ccc(F)cc3)CC2)cc1
Short answer wanted: higher IC50, a or b ? Write down the label of the entry you select.
a
